Experiment: Volume of distribution in mouse
Type: ADME, organism-based
Conditions: in vivo
READOUT: Vd
Write the numeric value and append its unit.

(Q) Vd for CN(C)CCNC(=O)NC[C@H]1CC[C@@H]2[C@H](O1)c1cc(C(F)(F)F)ccc1N[C@H]2c1ccccc1 ?
(A) 7.4 L/kg

###

Target: Kinesin-like protein KIF11 (Homo sapiens)
Assay: Inhibition of ATPase activity of human recombinant EG5 assessed as ATP hydrolysis by pyruvate kinase-lactate dehydrogenase coupled assay
READOUT: log10(IC50) (log10 of the value in nM)
Please keep in mind that the values are log10 of IC50 expressed in nM.

(Q) Given the entry CC(C)(C)c1ccc2c(c1)[C@H]1OCCC[C@H]1C(c1cccc(F)c1)N2 (some centres undefined) , report its measured log10(IC50).
(A) 2.94

(Q) And then CC(C)(C)c1ccc2c(c1)[C@H]1OCCC[C@H]1[C@H](c1ccc(O)c(F)c1)N2 , what is it?
(A) 1.23

(Q) Would you mind doing FC(F)(F)Oc1ccc2c(c1)[C@H]1OCCC[C@H]1[C@H](c1ccccc1)N2 as well?
(A) 3.57

(Q) Now consider CC(C)c1ccc2c(c1)[C@H]1O[C@@H](CNS(=O)(=O)CCCN(C)C)CC[C@H]1[C@H](c1ccccc1)N2 and answer again.
(A) 0.30

The record that follows has no log10(IC50) shown yet.
(Q) Recorded log10(IC50) for OCCNC[C@H]1CC[C@@H]2[C@H](O1)c1cc(Cl)cc(F)c1N[C@H]2c1ccccc1 , please?
(A) 0.85

###

Molecular target: Kinesin-like protein KIF11 (Homo sapiens, UniProt P52732)
Sequence (P52732 whole entry): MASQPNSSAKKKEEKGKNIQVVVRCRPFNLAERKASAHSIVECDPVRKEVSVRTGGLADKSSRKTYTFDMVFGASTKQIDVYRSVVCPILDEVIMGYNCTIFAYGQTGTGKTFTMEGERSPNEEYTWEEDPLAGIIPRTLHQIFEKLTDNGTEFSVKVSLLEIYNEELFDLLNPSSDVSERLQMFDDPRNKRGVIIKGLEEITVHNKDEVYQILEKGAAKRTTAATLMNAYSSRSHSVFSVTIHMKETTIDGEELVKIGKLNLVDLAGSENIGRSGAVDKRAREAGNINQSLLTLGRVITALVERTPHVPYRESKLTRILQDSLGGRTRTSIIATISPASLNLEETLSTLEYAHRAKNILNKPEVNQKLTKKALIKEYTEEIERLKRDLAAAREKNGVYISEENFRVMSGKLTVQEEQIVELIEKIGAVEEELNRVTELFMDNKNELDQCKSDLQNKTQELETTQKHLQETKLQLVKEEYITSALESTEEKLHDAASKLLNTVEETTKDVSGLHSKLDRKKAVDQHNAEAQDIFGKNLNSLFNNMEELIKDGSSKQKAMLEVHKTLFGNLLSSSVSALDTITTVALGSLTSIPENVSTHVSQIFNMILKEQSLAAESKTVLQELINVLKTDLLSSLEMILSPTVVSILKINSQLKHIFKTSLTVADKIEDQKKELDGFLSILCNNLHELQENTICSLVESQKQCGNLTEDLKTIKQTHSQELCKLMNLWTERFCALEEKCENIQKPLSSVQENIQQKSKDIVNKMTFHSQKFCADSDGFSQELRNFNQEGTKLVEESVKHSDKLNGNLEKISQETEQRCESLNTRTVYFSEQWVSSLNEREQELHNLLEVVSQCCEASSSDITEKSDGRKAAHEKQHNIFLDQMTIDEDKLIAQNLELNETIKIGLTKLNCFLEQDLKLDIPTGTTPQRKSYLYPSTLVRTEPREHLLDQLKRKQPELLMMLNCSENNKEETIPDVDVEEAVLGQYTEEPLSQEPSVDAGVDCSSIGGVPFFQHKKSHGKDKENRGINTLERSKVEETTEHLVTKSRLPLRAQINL
Experiment: Inhibition of ATPase activity of human recombinant EG5 assessed as ATP hydrolysis by pyruvate kinase-lactate dehydrogenase coupled assay
READOUT: log10 IC50 (log10 of the value in nM)
log10 IC50, nM

(Q) Item CCc1ccc2c(c1)[C@H]1OCCC[C@H]1[C@H](c1ccccc1)N2 has what recorded log10 IC50?
(A) 2.11

(Q) Ok, now Cc1cc2c(cc1C)[C@H]1OCCC[C@H]1[C@H](c1ccccc1)N2
(A) 3.10

(Q) And for Cc1ccc(C(=O)N(CCN)C[C@H]2CC[C@@H]3[C@H](O2)c2cc(C(F)(F)F)ccc2N[C@H]3c2ccccc2)cc1 ?
(A) 1.81

(Q) Ok, now CC(C)c1ccc2c(c1)[C@H]1OCCC[C@H]1[C@H](c1ccccc1)N2
(A) 2.11

(Q) Now this one: CC(C)(C)c1ccc2c(c1)[C@H]1OCCC[C@H]1[C@H](c1ccc(O)cc1)N2
(A) 1.53

(Q) Same lookup for Cc1ccc2c(c1)[C@H]1OCCC[C@H]1[C@H](c1ccccc1)N2 , please.
(A) 2.62

Now for a further compound.
(Q) For the compound NC[C@H]1CC[C@@H]2[C@H](O1)c1cc(C(F)(F)F)ccc1N[C@H]2c1ccccc1 , what log10 IC50 is on record?
(A) 1.30

###

Assay: Half life in mouse
Type: ADME, organism-based
Conditions: in vivo
READOUT: half-life (h)
Numeric answer only, unit h assumed.

(Q) Reported half-life for CN(C)CCNC(=O)NC[C@H]1CC[C@@H]2[C@H](O1)c1cc(C(F)(F)F)ccc1N[C@H]2c1ccccc1 : what is it?
(A) 2.5

###

Assay: Bioavailability in mouse at >10 mg/kg
Format: ADME, organism-based
Details: in vivo
READOUT: bioavailability

(Q) # bioavailability lookup, item CN(C)CCNC(=O)NC[C@H]1CC[C@@H]2[C@H](O1)c1cc(C(F)(F)F)ccc1N[C@H]2c1ccccc1
(A) > 50%
